Target: Nanoluciferase-BRD9 fusion protein (Homo sapiens (Human))
Sequence (Q9H8M2 whole entry, the tested form may be a part): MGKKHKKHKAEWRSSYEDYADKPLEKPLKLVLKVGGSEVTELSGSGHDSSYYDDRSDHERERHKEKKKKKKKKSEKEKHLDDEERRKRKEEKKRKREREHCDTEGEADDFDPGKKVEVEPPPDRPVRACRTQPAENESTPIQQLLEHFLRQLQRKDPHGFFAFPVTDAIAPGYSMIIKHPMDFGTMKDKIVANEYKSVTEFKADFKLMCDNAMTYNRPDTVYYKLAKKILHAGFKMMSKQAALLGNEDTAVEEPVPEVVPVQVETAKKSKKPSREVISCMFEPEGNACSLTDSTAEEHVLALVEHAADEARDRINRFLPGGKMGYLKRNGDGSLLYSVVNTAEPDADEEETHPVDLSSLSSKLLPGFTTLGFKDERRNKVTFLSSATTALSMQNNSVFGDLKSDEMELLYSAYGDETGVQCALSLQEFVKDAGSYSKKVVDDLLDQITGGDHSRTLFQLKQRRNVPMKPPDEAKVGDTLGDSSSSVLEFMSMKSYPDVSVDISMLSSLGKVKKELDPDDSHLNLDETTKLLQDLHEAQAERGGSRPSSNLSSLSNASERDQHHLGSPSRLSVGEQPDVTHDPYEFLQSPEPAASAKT
Assay: SYO1 BRD9 NanoLuc degradation assay
Type: cell-based
Conditions: Table 5A; SYO-1 cells expressing 3×FLAG-NLuc-BRD9, 6 hours; read-out: SYO1 BRD9-NanoLuc degradation IC50
Method: Procedure: A stable SYO-1 cell line expressing 3×FLAG-NLuc-BRD9 was generated. On day 0 cells were seeded in 30 μL media into each well of 384-well cell culture plates. The seeding density was 8000 cells/well. […] Nanoluciferase activity was measured by adding 15 μL of freshly prepared Nano-Glo Luciferase Assay Reagent (Promega N1130), shaking the plates for 10 minutes and reading the bioluminescence using an EnVision reader. […]
quantity.kind: DC50

Examples with answers:
compound	measured.on	DC50
COc1cc(-c2cn(C)c(=O)c3cnccc23)cc(OC)c1CN1CC(C(=O)N(C)Cc2cccc3c2C(=O)N(C2CCC(=O)NC2=O)C3=O)C1 (centres unmarked) [Compound D29]	Nanoluciferase-BRD9 fusion protein (Homo sapiens (Human))	10 to 100 nM
COc1cc(-c2cn(C)c(=O)c3cnccc23)cc(OC)c1CN1CC(CC(=O)N2CCC3(CC2)CC(Oc2ccc4c(c2)C(=O)N(C2CCC(=O)NC2=O)C4=O)C3)C1 (centres unmarked) [Compound D80]	Nanoluciferase-BRD9 fusion protein (Homo sapiens (Human))	< 10 nM
COc1cc(-c2cn(C)c(=O)c3cnccc23)cc(OC)c1CN(C)CCOCCN1CCN(c2ccc3c(c2)C(=O)N(C2CCC(=O)NC2=O)C3=O)CC1 (centres unmarked) [Compound D46, formic acid]	Nanoluciferase-BRD9 fusion protein (Homo sapiens (Human))	< 10 nM
COc1cc(-c2cn(C)c(=O)c3cnccc23)cc(OC)c1CN1CCC2(CC1)CN(C(=O)CCOCCOc1ccc3c(c1)C(=O)N(C1CCC(=O)NC1=O)C3=O)C2 (centres unmarked) [Compound D119]	Nanoluciferase-BRD9 fusion protein (Homo sapiens (Human))	10 to 100 nM

Task: Given the entry COc1cc(-c2cn(C)c(=O)c3cnccc23)cc(OC)c1CN1CC2(CC(C(=O)NCCCCCCCCNc3cccc4c3C(=O)N(C3CCC(=O)NC3=O)C4=O)C2)C1 (centres unmarked) [Compound D20] , what DC50 was observed with Nanoluciferase-BRD9 fusion protein (Homo sapiens (Human))?
Result: < 10 nM

Recorded values, source patent US11414416B1.
